Listed below: TCF/Wnt firefly luciferase reporter signal values for each entry.
- System: DLD1
- Experiment notes: TCF/Wnt firefly luciferase reporter signal relative to plate median (fraction of plate median); higher = higher Wnt reporter signal
- Particulars: 5 µM; treatment time 24 h; reporter: 7TFP
In your answer, state the number alone without any accompanying words.

// solved cases for TCF/Wnt firefly luciferase reporter signal follow
{"Molecule": "CC(=O)O[C@H]1CC[C@]2(C)C3=C(CC[C@H]2C1(C)C)[C@]1(C)CC[C@H]([C@H](C)CCC=C(C)C)[C@@]1(C)CC3", "Target or system": "DLD1", "Readout value": 0.9}
{"Molecule": "CN(C/C=C/C#CC(C)(C)C)Cc1cccc2ccccc12", "Target or system": "DLD1", "Readout value": 1.21}
{"Molecule": "CC(=O)N(O)CCCCCNC(=O)CCC(=O)N(O)CCCCCNC(=O)CCC(=O)N(O)CCCCCN", "Target or system": "DLD1", "Readout value": 0.869}
{"Molecule": "CC(C)CC(NC(=O)OCC1c2ccccc2-c2ccccc21)C(=O)O (stereo in doubt)", "Target or system": "DLD1", "Readout value": 0.979}
{"Molecule": "CC1(C)S[C@@H]2[C@H](NC(=O)[C@H](N)c3ccccc3)C(=O)N2[C@H]1C(=O)O", "Target or system": "DLD1", "Readout value": 1}
{"Molecule": "CCCCC1=NC2(CCCC2)C(=O)N1Cc1ccc(-c2ccccc2-c2nnn[nH]2)cc1", "Target or system": "DLD1", "Readout value": 1.01}
{"Molecule": "O=C1CC(c2ccc(O)c(O)c2)Oc2cc(O)cc(O)c21 (stereo not given)", "Target or system": "DLD1", "Readout value": 0.912}
{"Molecule": "CCc1c(O)cc(C(C)CC)oc1=O (stereo not given) [Germicidin]", "Target or system": "DLD1", "Readout value": 0.946}

# lookup: TCF/Wnt firefly luciferase reporter signal of Cc1cc(O)c(C=O)c2c1C(=O)Oc1c(C)c(O)c3c(c1O2)C(O)OC3=O (stereo not given)
1.04

Now consider CCOC(=O)c1c(C)cc(OC)cc1O .
0.874

* * *

- Tested on: DLD1
- Experiment notes: TCF/Wnt firefly luciferase reporter signal relative to plate median (fraction of plate median); higher = higher Wnt reporter signal
- Particulars: 5 µM; treatment time 24 h; reporter: 7TFP
Listing of entries alongside the reported TCF/Wnt firefly luciferase reporter signal.
Lab note: jot down the number only; don't add units.

The following compounds have reported results that may help.
{"Compound": "CCC(C)C(=O)OC1[C@@H]2CC3=C4CC(=O)O[C@@H](c5ccoc5)[C@]4(C)CCC3[C@@](C)(C2=O)[C@@H](CC(=O)OC)C1(C)C (some centres not stated)", "Readout value": 1.15}
{"Compound": "CC(C)CCC[C@@H](C)[C@H]1CC[C@H]2[C@@H]3C(=O)C=C4C[C@@H](O)CC[C@]4(C)[C@H]3CC[C@]12C", "Readout value": 0.959}

Let us examine a further case.
Requested field: TCF/Wnt firefly luciferase reporter signal. Item: CCCCOC(=O)c1ccc(N)cc1
0.936

* * *

- Test system: DLD1
- Experiment notes: cell viability (CellTiter-Glo) relative to plate median (fraction of plate median); higher = more viable cells
- Particulars: 5 µM; treatment time 24 h; reporter: 7TFP
Measured metric: cell viability

Look over these answered cases.
{"Cpd smiles": "CCCCCCc1ccc(O)cc1O.Nc1c2ccccc2nc2ccccc12", "Readout value": 1.03}
{"Cpd smiles": "CC(=O)Nc1ccccc1", "Readout value": 0.977}
{"Cpd smiles": "CN(C)CCCN1c2ccccc2Sc2ccccc21", "Readout value": 0.908}
{"Cpd smiles": "COc1ccc(C(=O)c2ccc(O)cc2)c(O)c1O", "Readout value": 1.01}
{"Cpd smiles": "COc1cc2ccc(=O)oc2c(OC)c1OC", "Readout value": 1.05}
{"Cpd smiles": "Cc1cc(=O)c2c(O)cc(O)c(C)c2o1", "Readout value": 0.906}

Look up cell viability: N#CN=C(NCCCCCCOc1ccc(Cl)cc1)Nc1ccncc1
0.954

Just for reference, the supplement of paper PMC6522484 is where these values come from.
